Some compounds, each annotated with its measured Mortality.
System: larvae of diamond-back moth (Plutilla xylostella Linn'e)
Assay: Test Example 10: insecticidal activity against larvae of diamond-back moth
Type: in vivo
Conditions: 400 ppm, first-instar larvae, three days; 4320 min
property_label: Mortality (%)

> print(dat)
                                        smi  property.label  result.number
1  CC(C)(C)N=C1SCN(c2ccc(Cl)cc2)C(=O)N1C1CCCCC1       Mortality             80
2            CCc1ccc(N2CSC(=NC)N(C)C2=O)cc1       Mortality            100
3   CCCN1C(=O)N(c2cccc(Cl)c2)CSC1=NC(C)(C)C       Mortality             70
4  CC(C)N1C(=O)N(c2cccc(Cl)c2)CSC1=NC1CCCCC1       Mortality            100
5  CCc1ccc(N2CSC(=NC(C)(C)C)N(C(C)C)C2=O)cc1       Mortality            100
6  Cc1cccc(N2CSC(=NC(C)C)N(Cc3ccccc3)C2=O)c1       Mortality            100
7  CCCCN1C(=O)N(c2cccc(Cl)c2)CSC1=NC(C)(C)C       Mortality            100
8  Cc1cccc(N2CSC(=NC(C)(C)C)N(C(C)C)C2=O)c1       Mortality            100
9  C=CCN1C(=O)N(c2cccc(Cl)c2)CSC1=NCc1ccccc1       Mortality             80
